# measurementNotes: Terminal-half life in iv dosed Sprague-Dawley rat
# Format: ADME, organism-based
# details: in vivo, read-out: beta t1/2 (converted)

structure | half-life
CCN(CC)c1ccc2nc3c4ccccc4/c(=N\c4ccncc4)cc-3oc2c1 | 5.5 h

* * *

# System: Trypanosoma cruzi
# measurementNotes: Antiparasitic activity against Trypanosoma cruzi
# Format: functional, organism-based
measurementKind: IC50 (µM)

structure | assayedSystem | observedMeasurement
CCN(CC)c1ccc2nc3c4ccccc4/c(=N\c4ccncc4)cc-3oc2c1 | Trypanosoma cruzi | 11.3

* * *

Parameter: selectivity ratio. Scope: all listed entries.
# measurementNotes: Selectivity index, ratio of IC50 for rat L6 cells to IC50 for Plasmodium falciparum K1
# Type: toxicity, cell-based
# details: read-out: Ratio IC50
measurementKind: selectivity ratio

compound | observedMeasurement
CCN(CCNS(C)(=O)=O)c1cc(C)c2nc3c4ccccc4/c(=N/c4ccncc4)cc-3oc2c1.Cl.Cl | 887
CCN(CC)c1ccc2nc3c4ccccc4/c(=N\c4ccncc4)cc-3oc2c1 | 7330
CC[N+](CC)=c1ccc2nc3c(cc(N)c4ccccc43)oc-2c1.[Cl-] [NILE BLUE HYDROCHLORIDE] | 2760
CCN(CC)c1ccc2nc3c4ccccc4/c(=N\c4cccnc4)cc-3oc2c1 | 5090
CCN(CC)c1ccc2nc3c4ccccc4/c(=N\c4ccccn4)cc-3oc2c1 | 1050
CCN(CC)c1ccc2nc3c4ccc(Br)cc4/c(=N/c4ccccn4)cc-3oc2c1 | > 5010
CCN(CC)c1ccc2nc3c4ccccc4/c(=N/c4ccccc4)cc-3oc2c1.Cl | 863
CCN(CC)c1ccc2nc3c4ccccc4/c(=N\c4ncc(Cl)cc4Cl)cc-3oc2c1 | 2860
CCCN(CCC)c1ccc2nc3c4ccccc4/c(=N/c4ccncc4)cc-3oc2c1.Cl.Cl | 1340
CCN(CC)c1ccc2nc3c4ccccc4/c(=N/c4cc[n+](Cc5ccccc5)cc4)cc-3oc2c1.[Cl-] | 31
CCN(CC)c1cc(C)c2nc3c4ccccc4/c(=N/c4ccncc4)cc-3oc2c1.Cl.Cl | 481
CCN(CC)c1ccc2nc3c4ccc(Br)cc4/c(=N/c4ccncc4)cc-3oc2c1 | > 17300
CN(C)c1ccc2nc3c4ccccc4/c(=N/c4ccncc4)cc-3oc2c1 | 20400
CCN(CC)c1ccc2nc3c4ccccc4/c(=N/c4cc[n+](C)cc4)cc-3oc2c1.[I-] | 174
c1ccc2/c(=N/c3ccncc3)cc3oc4cc(N5CCOCC5)ccc4nc-3c2c1 | 3340
CCN(CC)c1ccc2nc3c4ccccc4/c(=N/c4nc5ccc(OC)cc5s4)cc-3oc2c1 | 1490
CCN(CC)c1ccc2nc3c4ccccc4c(=O)cc-3oc2c1 [NILE RED] | 76
